# tested_system: purified EphA2 (UniProt P29317 25-534, limits assumed)
# Sequence (P29317 25-534 limits assumed): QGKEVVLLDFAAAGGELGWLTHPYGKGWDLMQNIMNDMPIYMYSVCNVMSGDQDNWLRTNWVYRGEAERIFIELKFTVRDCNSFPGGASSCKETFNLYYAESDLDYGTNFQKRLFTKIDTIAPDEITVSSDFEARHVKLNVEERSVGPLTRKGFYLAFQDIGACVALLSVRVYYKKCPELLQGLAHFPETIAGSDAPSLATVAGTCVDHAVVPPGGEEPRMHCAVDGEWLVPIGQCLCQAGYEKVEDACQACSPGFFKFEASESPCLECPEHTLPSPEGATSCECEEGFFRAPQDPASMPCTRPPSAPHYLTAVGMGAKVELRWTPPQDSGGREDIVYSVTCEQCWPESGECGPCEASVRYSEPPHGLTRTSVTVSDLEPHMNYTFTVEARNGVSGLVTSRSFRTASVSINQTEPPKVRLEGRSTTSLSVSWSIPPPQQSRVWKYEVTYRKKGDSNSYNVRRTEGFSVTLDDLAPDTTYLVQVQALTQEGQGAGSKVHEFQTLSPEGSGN
# assay_text: binding to purified EphA2; method not stated
Primed or numbered codes have the meaning given here. [ ]: non-standard residue; d: D form. PEG11′ = not defined here
attribute_measured: Kd (nM)
All answers are understood in nM, so give the number only.

Exam item: Request the reported Kd associated with Ac-YAAWPASGAWT[PEG11′]C-NH2 (Optimized MGS peptide from phage display (parent H1299.2); also called MGS_1299.2 V4) [MGS_H1299.2 V4]
Marked response: 3.2

Origin of the recorded values: patent US20240209041A1
